Just for reference, paper PMC9618858 is where these values come from.

# MEASURED TARGET: Cyclin-A2 (CCNA2) (Homo sapiens, UniProt P20248)
# Construct: recombinant human CCNA2 (rCCNA2), GST-tagged expression in BL21 (DE3), tag cleaved
# Sequence (P20248 whole entry): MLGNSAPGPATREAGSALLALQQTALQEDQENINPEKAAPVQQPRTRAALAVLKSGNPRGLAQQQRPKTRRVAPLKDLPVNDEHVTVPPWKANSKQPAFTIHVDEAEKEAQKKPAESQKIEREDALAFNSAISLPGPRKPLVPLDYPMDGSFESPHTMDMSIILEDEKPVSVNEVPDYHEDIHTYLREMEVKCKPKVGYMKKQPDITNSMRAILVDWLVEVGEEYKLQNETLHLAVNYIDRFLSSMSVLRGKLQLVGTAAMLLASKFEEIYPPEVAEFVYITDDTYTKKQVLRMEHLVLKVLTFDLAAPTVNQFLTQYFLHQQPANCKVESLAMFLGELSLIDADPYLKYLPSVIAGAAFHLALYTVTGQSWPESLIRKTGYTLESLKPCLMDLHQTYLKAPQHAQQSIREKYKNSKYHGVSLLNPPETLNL
# ASSAY EXPLANATION: ITC with purified CCNA2; supported by CETSA in MG-63 lysate and co-IP (blocks CCNA2-CDK2)
ENDPOINT LABEL: Kd (µM)
Value expressed in µM; do not type the unit.

# `Cc1ccccc1Cn1c2ccccc2c2cc(C(=O)OCCCCCOC(=O)c3cc4c5ccccc5n(Cc5ccccc5C)c4cn3)ncc21` with Cyclin-A2 (CCNA2) (Homo sapiens, UniProt P20248): Kd is 2900
